Ref: ChEMBL document CHEMBL1781906

- Test system: Streptococcus pyogenes
- Test summary: Antibacterial activity against Streptococcus pyogenes after 18 to 24 hrs by serial plate dilution method
- Type: functional
Recorded MIC values for a group of compounds are listed next.

COc1ccc2nc(C)cc(-n3cc(CNS(=O)(=O)c4ccccc4)nn3)c2c1 :: 6.25 µg/mL
COc1ccc2nc(C)cc(-n3cc(CNC(=O)c4ccccc4Cl)nn3)c2c1 :: 3.12 µg/mL
COc1ccc2nc(C)cc(-n3cc(CNC(=O)c4ccccc4F)nn3)c2c1 :: 0.2 µg/mL

// switching to the query compound
Asked: # query: MIC of entry COc1ccc(S(=O)(=O)NCc2cn(-c3cc(C)nc4ccc(OC)cc34)nn2)cc1
Given back: 1.6 µg/mL

====

- Test system: Streptococcus pyogenes
- Test summary: Antibacterial activity against Streptococcus pyogenes after 18 to 24 hrs by serial plate dilution method
- Type: functional
Assay readout: MIC (µg/mL)
Respond numerically; units are µg/mL and should not be typed.

COc1ccc2nc(C)cc(-n3cc(CNC(C)=O)nn3)c2c1 :: 0.2

Asked: # query: MIC of entry COc1ccc2nc(C)cc(-n3cc(CNS(=O)(=O)c4ccc(C)cc4)nn3)c2c1
Given back: 6.25

Asked: # query: MIC of entry COc1ccc2nc(C)cc(-n3cc(CNS(=O)(=O)c4ccc(Cl)c(Cl)c4)nn3)c2c1
Given back: 3.12

Asked: # query: MIC of entry COc1ccc2nc(C)cc(-n3cc(CN4CCN(C(=O)C5CCC5)CC4)nn3)c2c1
Given back: 1.6

Asked: # query: MIC of entry COc1ccc2nc(C)cc(-n3cc(CN4CCN(C(=O)c5ccccc5Cl)CC4)nn3)c2c1
Given back: 3.12

====

- System: Streptococcus pyogenes
- Test summary: Antibacterial activity against Streptococcus pyogenes after 18 to 24 hrs by serial plate dilution method
- Format: functional
Recorded MIC values for a group of compounds are listed next.
Respond numerically; units are µg/mL and should not be typed.

Use these answered entries as a reference point.
COc1ccc2nc(C)cc(-n3cc(CNC(=O)c4ccc(F)cc4)nn3)c2c1 :: 0.2
COc1ccc(C(=O)N2CCN(Cc3cn(-c4cc(C)nc5ccc(OC)cc45)nn3)CC2)cc1 :: 1.6
COc1ccc2nc(C)cc(-n3cc(CN4CCN(C(=O)c5ccc(Cl)c(Cl)c5)CC4)nn3)c2c1 :: 0.8
COc1ccc2nc(C)cc(-n3cc(CNS(=O)(=O)c4ccc(F)cc4)nn3)c2c1 :: 0.4
COc1ccc2nc(C)cc(-n3cc(CN4CCN(C(=O)c5ccccc5)CC4)nn3)c2c1 :: 0.8
COc1ccc2nc(C)cc(-n3cc(CN4CCN(C(=O)c5ccc(F)cc5)CC4)nn3)c2c1 :: 0.4

// switching to the query compound
Asked: # query: MIC of entry COc1ccc2nc(C)cc(-n3cc(CNS(=O)(=O)c4ccccc4C(F)(F)F)nn3)c2c1
Given back: 0.4

====

Recorded MIC values for a group of molecules are listed next.
- System: Escherichia coli
- Test summary: Antibacterial activity against Escherichia coli ATCC 25922 after 18 to 24 hrs by […]
- Assay type: functional
Respond numerically; units are µg/mL and should not be typed.

COc1ccc2nc(C)cc(-n3cc(CNC(=O)c4ccccc4F)nn3)c2c1 :: 0.4
COc1ccc2nc(C)cc(-n3cc(CNS(=O)(=O)c4ccc(Cl)c(Cl)c4)nn3)c2c1 :: 12.5
COc1ccc2nc(C)cc(-n3cc(CN4CCN(C(=O)C5CC5)CC4)nn3)c2c1 :: 0.4
COc1ccc(C(=O)NCc2cn(-c3cc(C)nc4ccc(OC)cc34)nn2)cc1 :: 0.1
COc1ccc2nc(C)cc(-n3cc(CNC(C)=O)nn3)c2c1 :: 0.1
CCc1ccc(C(=O)NCc2cn(-c3cc(C)nc4ccc(OC)cc34)nn2)cc1 :: 3.12
COc1ccc2nc(C)cc(-n3cc(CNS(=O)(=O)c4ccc(F)cc4)nn3)c2c1 :: 3.12
COc1ccc2nc(C)cc(-n3cc(CNC(=O)c4ccc(F)cc4)nn3)c2c1 :: 0.2
COc1ccc2nc(C)cc(-n3cc(CNS(=O)(=O)c4ccccc4)nn3)c2c1 :: 6.25
COc1ccc(C(=O)N2CCN(Cc3cn(-c4cc(C)nc5ccc(OC)cc45)nn3)CC2)cc1 :: 0.4

Asked: # query: MIC of entry COc1ccc2nc(C)cc(-n3cc(CNC(=O)c4ccc(C)cc4)nn3)c2c1
Given back: 3.12

Asked: # query: MIC of entry CCc1ccc(C(=O)N2CCN(Cc3cn(-c4cc(C)nc5ccc(OC)cc45)nn3)CC2)cc1
Given back: 3.12

Asked: # query: MIC of entry COc1ccc2nc(C)cc(-n3cc(CN4CCN(C(=O)c5ccccc5F)CC4)nn3)c2c1
Given back: 1.6

Asked: # query: MIC of entry COc1ccc2nc(C)cc(-n3cc(CN4CCN(C(=O)C5CCC5)CC4)nn3)c2c1
Given back: 1.6
